ASSAY SUMMARY: Solubility in various buffers
Format: physicochemical
CONDITION LABEL: simulated gastric fluid, thermodynamic from solid; SGF; read-out: Solubility

>  <COMPOUND>
CC(C)OC(=O)[C@H](C)N[P@@](=O)(OCCN1CCOCC1)Oc1cc(NC(=O)c2c[nH]c3ccccc3c2=O)c(C(C)(C)C)cc1C(C)(C)C.O=C(O)CCC(=O)O [Compound 15]

>  <solubility>
1430 µg/mL

$$$$

###

ASSAY SUMMARY: Pharmacokinetics after single dose oral administration in rats
Type: in vivo, male Sprague Dawley rats
CONDITION LABEL: male, Sprague Dawley, plasma, rat, ivacaftor 50 mg/kg, Crystalline Suspension (0.25% Methyl Cellulose in water)

>  <COMPOUND>
CC(C)(C)c1cc(C(C)(C)C)c(NC(=O)c2c[nH]c3ccccc3c2=O)cc1O [ivacaftor, reference compound]

>  <AUC(0-t)>
14600 ng·h/mL

$$$$
